Assay: Release rate from LDPE sachets by gravimetry
Format: physicochemical
Details: 50 μm LDPE pouch; 22° C., constant, laboratory
MEASURED METRIC: Release rate per thickness of LDPE pouch (mg/day)

Field: example entries. Status: answers known.
In [3]: df
Out[3]:
                                   compound                           measured_metric  observed_result
0                CC(C)CO [Isobutyl alcohol]  Release rate per thickness of LDPE pouch               20
1  CCC(C)CO (stereo not drawn) [2-Methyl-butanol, 2-methyl-1-butanol]  Release rate per thickness of LDPE pouch             16.4
2                 CCOC(C)=O [Ethyl acetate]  Release rate per thickness of LDPE pouch              880
3             CCOC(=O)CC [Ethyl propionate]  Release rate per thickness of LDPE pouch              880

a: CCCC(=O)OCC [Ethyl butyrate]
b: CC(C)CCO [Isoamyl alcohol]
Just curious, which one has the larger Release rate per thickness of LDPE pouch reading, a or b ? Kindly give the label for the entry you pick.
a
